Tested on: CSNK1A1;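 further: KINOMEscan kinase panel screen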
Settings: concentration: 1 μM,replicates: in singlicate; n = 1

{"columns": ["molecule", "%Inh / %"],
 "data": [
  ["Cc1nnc(-c2ccc3occ(-c4ccc(S(C)=O)cc4)c3n2)o1 (centres unmarked)", 0],
  ["COc1cc2c(Nc3ccc(NC(=O)c4ccccc4)cc3)ncnc2cc1OCCCN1CCOCC1", 7],
  ["O=C(NCC1CC1)c1ccc(-c2cc(C(=O)NC3CC3)ccc2F)cc1", 0],
  ["Cn1ccc2ncnc(Oc3ccc(NC(=O)Nc4cc(C(C)(C)C)on4)c(Cl)c3)c21", 6],
  ["FC(F)(F)c1cc(Br)cc(Nc2nccc(-c3cnn4ncccc34)n2)c1", 58],
  ["O=C(Nc1n[nH]c2cc(-c3ccco3)ccc12)C1CC1", 18],
  ["CN(c1ccc2c(c1)nc(NCc1ccc(F)cc1)n2C)c1ccnc(Nc2ccc(CS(C)(=O)=O)cc2)n1.Cl", 28],
  ["CCn1c(-c2nonc2N)nc2cncc(Br)c21", 12],
  ["Cc1ccc(CC(=O)N2CCc3cc(-c4cn(C)c5ncnc(N)c45)ccc32)cc1", 0],
  ["NC(=O)c1ccc(-c2cc3ncnc(SCC(=O)O)c3s2)cc1", 0],
  ["COc1cc2nccc(Nc3ccc(Oc4ccccc4)cc3)c2cc1OC.Cl", 0],
  ["COC(=O)Nc1nc2cc(Oc3ccc(NC(=O)Nc4cc(C(F)(F)F)ccc4Cl)cc3)ccc2[nH]1.Cl", 0],
  ["CNC(=O)c1ccccc1Nc1nc(Nc2cccc(CS(C)(=O)=O)c2)ncc1C.O=CO", 46],
  ["CC(=O)c1c(-c2ccncc2)[nH]c(-c2ccncc2)c1C", 93.4],
  ["CS(=O)c1ccc(-c2coc3ccc(-c4n[nH]c(=O)o4)cc23)cc1 (centres unmarked)", 7],
  ["CN1CCN(CCNc2nc3cc(Oc4ccc(NC(=O)Nc5cc(C(F)(F)F)ccc5F)cc4)ccc3[nH]2)CC1.Cl.Cl", 19],
  ["CC(=O)Nc1nc2cnc(Nc3cc(NC(=O)c4cccc(CC(C)(C)C#N)c4)ccc3C)nc2s1", 31],
  ["C[C@@H](Oc1cc(-n2cnc3cc(-c4ccncc4)ccc32)sc1C(N)=O)c1ccccc1Cl", 0],
  ["Cn1ccc2ncnc(Oc3ccc(NC(=O)Nc4cncc(C(F)(F)F)c4)c(Cl)c3)c21", 0],
  ["c1ccc(Oc2ccc(Nc3ccnc4ccc(-c5ccccn5)cc34)cc2)cc1", 0],
  ["C[C@@H]1CNc2c(sc3ccc4nc(-c5ccncc5)ccc4c23)C(=O)N1", 95],
  ["CC(C)c1nc(-c2cccc(NS(=O)(=O)c3ccccc3)c2)c(-c2ccnc(Nc3ccc4c(c3)CN(C)CC4)n2)s1", 87],
  ["CS(=O)(=O)c1cccc(CNc2nc(Nc3ccc4c(c3)[C@@H]3C[C@@H]4CNC3=O)ncc2C(F)(F)F)c1", 0],
  ["COC(=O)c1cccc(NC(=O)NC2CCN(c3ccnc(NCc4ccc(F)cc4)n3)CC2)c1", 0],
  ["CCn1c(-c2nonc2N)nc2cncc(CNC3CCNCC3)c21.Cl", 0],
  ["NC(=O)Nc1sc(-c2ccc(F)cc2)cc1C(N)=O", 35],
  ["Cl.Cl.NC[C@H](CC1CCCCC1)NC(=O)c1ccc(-c2ccnc3[nH]ccc23)s1", 77],
  ["COc1cccc(OC)c1C(=O)Nc1cccc(-c2nn3ccccc3c2-c2ccnc(Nc3cccc(F)c3)n2)c1", 25],
  ["Cn1cc(-c2cccc3c(N)c(C(N)=O)nnc23)cn1", 72],
  ["Cl.c1ccc(Oc2ccc(Nc3ccnc4cc(-c5ccc(CN6CCNCC6)o5)ccc34)cc2)nc1", 0],
  ["Cl.Nc1n[nH]c2cc(-c3ccccn3)ccc12", 0],
  ["COc1ccc(Nc2nccc(N3CCC(NC(=O)c4cccc(C#N)c4)C3)n2)cc1 (centres unmarked)", 0],
  ["O=C(Nc1cccc(Oc2ccc3nccn3n2)c1)Nc1cccc(C(F)(F)F)c1", 0],
  ["CCOC(=O)N1CCC(n2cnc(-c3ccc(F)cc3)c2-c2ccnc(N)n2)CC1", 97.8],
  ["C[C@@H](Oc1cc(-n2cnc3ccc(-c4ccncc4)cc32)sc1C(N)=O)c1ccccc1Cl", 0]
]}

Cited source for all entries: paper PMC5540273
